| compound | melting point |
| --- | --- |
| CCC(=C(c1ccc(O)cc1)c1ccc(O)cc1)c1ccc(/C=C/C(=O)O)cc1 | 280 to 281 °C |
| O=C(CCl)N1CCN(C(=O)CCl)CC1 | 104 to 107 °C |
| COC(=O)c1cc(-c2nn(C)c(SC)c2C)c(F)cc1Cl | 82 to 83 °C |
| COc1ccc(-c2cc(=O)n(Cc3ccc(Cl)cc3)nc2-c2ccc(OC)cc2)cc1 | 124 to 127 °C |
| N#Cc1cnc2ccsc2c1Nc1ccc(Cl)cc1Cl | 198 to 200 °C |
| CC1CCCCC1OC(=O)c1ncn2c1C1CCCN1C(=O)c1c(Cl)cccc1-2 (stereo unspecified) | 213 to 215 °C |
| CCOC(=O)NC(=O)C1c2ccccc2Sc2ccccc21 | 179 to 182 °C |
| COc1cccc2c1C(C)C(=O)N2C (stereo unspecified) | 73 to 74 °C |
| CCOC(=O)C(=NOC)c1nc(Cl)cc(NC=O)n1 | 116 to 119 °C |
| CSc1ccc(-c2c(C)n[nH]c(=O)c2-c2ncc(Cl)cc2Cl)nc1 | 229 °C |
| CCNS(=O)(=O)c1ccc(NC(C)=O)cc1 | 90 to 91 °C |
| CC1(C)OCC(NC2COC(C)(C)OC2)CO1 | 65 °C |
| OC1CSC(Sc2ccc(C(F)(F)F)cc2)C(O)C1O (stereo unspecified) | 128 to 130 °C |
| COc1ccc2c(n1)C1(CO2)C(=O)N(Cc2ccc(C(F)(F)F)o2)c2ccccc21 (stereo unspecified) | 145 to 147 °C |
| N#CCCn1c(-c2ccccc2)cc2ccccc21 | 90 °C |
| CC(SC1COC(c2ccc(C(=O)Nc3c(F)c(F)c(C#N)c(F)c3F)cc2)OC1)C(O)(Cn1cncn1)c1ccc(F)cc1F (stereo unspecified) | 182 °C |
| CSc1sc(C(=O)O)c2c1-c1nc(C)sc1CC2 | 273 to 274 °C |
| Cc1c(CO)nc(-c2ccc(C(F)(F)F)cc2)n1C | 152 °C |
| CNC(=O)[C@H]1CN(c2cc(F)c(N3CCOCC3)c(F)c2)C(=O)O1 | 179 to 181 °C |
| CC(C)c1nc(C(c2ccccc2)c2ccccc2)cc(-c2ccc(F)cc2)c1CO | 138 to 140 °C |
| Cc1oc(-c2ccco2)nc1COc1ccc(COc2nn(Cc3ccccc3)cc2CO)cn1 | 94 to 95 °C |
